TARGET OR TEST SYSTEM: various mutants of kinase EGFR (BaF3 cell lines stably transfected with kinase) (Homo sapiens, UniProt P00533, C797S/L858R/T790M)
Construct: expressed in transfected cells; host or cells: BaF3
Sequence (P00533 25-1210 T790M/C797S/L858R): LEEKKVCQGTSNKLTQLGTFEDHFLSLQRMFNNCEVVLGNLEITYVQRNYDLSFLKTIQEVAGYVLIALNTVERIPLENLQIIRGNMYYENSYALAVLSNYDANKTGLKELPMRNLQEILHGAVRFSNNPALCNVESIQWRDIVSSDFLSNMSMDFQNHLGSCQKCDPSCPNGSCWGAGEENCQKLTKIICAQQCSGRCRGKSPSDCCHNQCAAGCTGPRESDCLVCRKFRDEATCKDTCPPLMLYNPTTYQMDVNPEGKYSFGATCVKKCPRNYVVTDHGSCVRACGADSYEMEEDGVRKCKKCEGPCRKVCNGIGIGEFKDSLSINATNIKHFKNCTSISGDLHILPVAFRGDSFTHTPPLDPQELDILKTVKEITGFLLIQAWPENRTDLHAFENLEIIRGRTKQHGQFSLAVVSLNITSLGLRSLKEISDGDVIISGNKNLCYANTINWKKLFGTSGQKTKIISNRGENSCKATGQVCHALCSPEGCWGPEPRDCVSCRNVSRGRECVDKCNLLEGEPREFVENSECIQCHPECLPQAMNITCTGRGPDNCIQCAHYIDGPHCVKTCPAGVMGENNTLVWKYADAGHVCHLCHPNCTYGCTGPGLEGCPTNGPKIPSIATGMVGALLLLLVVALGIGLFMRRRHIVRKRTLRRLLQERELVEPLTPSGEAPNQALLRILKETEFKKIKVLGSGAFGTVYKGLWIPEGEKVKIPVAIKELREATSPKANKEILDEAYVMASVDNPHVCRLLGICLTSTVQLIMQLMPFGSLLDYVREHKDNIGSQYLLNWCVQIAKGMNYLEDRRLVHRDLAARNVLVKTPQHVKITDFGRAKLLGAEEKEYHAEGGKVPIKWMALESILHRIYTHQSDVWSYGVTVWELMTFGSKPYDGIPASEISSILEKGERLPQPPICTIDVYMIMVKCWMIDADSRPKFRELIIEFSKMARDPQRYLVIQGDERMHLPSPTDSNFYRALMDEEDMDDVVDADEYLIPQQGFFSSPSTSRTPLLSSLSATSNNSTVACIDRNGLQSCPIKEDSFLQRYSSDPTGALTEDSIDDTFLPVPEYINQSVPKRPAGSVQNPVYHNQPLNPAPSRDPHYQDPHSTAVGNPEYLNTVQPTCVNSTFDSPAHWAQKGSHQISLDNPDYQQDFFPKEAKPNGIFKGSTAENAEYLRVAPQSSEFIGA
RUN DESCRIPTION: Growth inhibitory activity of compounds on BaF3 cell lines stably transfected with kinase (MTS, 48 h)
Type: cell-based
DETAILS: BaF3 cell line stably transfected with EGFR L858R/T790M/C797S, read-out: L858R/T790M/ C797S growth inhibitory activity IC50
pIC50: −log10 of the molar value.
PROPERTY: pIC50

Use these answered entries as a reference point.
# COMPOUND, pIC50
data = [
    ("CCc1cc(Nc2ncc(C3CC3)c(Nc3ccc4nccnc4c3N(C)S(C)(=O)=O)n2)c(OC)cc1C(=O)N1CCC(N2CCN(C)CC2)CC1", "6.30 to 7.30"),
    ("COc1cc(N2CCC(N3CCN(C)CC3)CC2)c(C)cc1Nc1nc(Nc2ccc3nccnc3c2N(C)S(C)(=O)=O)c2[nH]ccc2n1", "5.60 to 6.30"),
    ("COc1cc(N2CCC(N3CCN(C)CC3)CC2)ccc1Nc1nc(Nc2ccc3nccnc3c2N(C)S(C)(=O)=O)c2sccc2n1", "5.60 to 6.30"),
]

Problem: Value lookup for pIC50; key = COc1nc(N2CCC(N3CCN(C)CC3)CC2)ccc1Nc1nc(Nc2ccc3nccnc3c2N(C)S(C)(=O)=O)c2sccc2n1
Result: 5.60 to 6.30

Problem: pIC50 lookup needed for CCc1cc(Nc2ncc(Br)c(Nc3ccc4nccnc4c3NS(C)(=O)=O)n2)c(OC)cc1N1CCC(N(C)C)C1 (centres unmarked) , thanks.
Result: ≥ 7.30

Problem: For COc1ccc(N2CCC(O)CC2)cc1Nc1ncc(Cl)c(Nc2ccc3nccnc3c2N(C2CC2)S(C)(=O)=O)n1 , what is its reported pIC50?
Result: ≥ 7.30

Problem: Would you kindly share the measured pIC50 for COc1cc(N2CCC(N3CCN(C)CC3)CC2)c(CC2CC2)cc1Nc1ncc(Br)c(Nc2ccc3nccnc3c2N(C2CC2)S(C)(=O)=O)n1 ?
Result: 6.30 to 7.30

Problem: Reported pIC50 for CCc1cc(Nc2nc(Nc3ccc4nccnc4c3N(C)S(C)(=O)=O)c3[nH]ccc3n2)c(OC)cc1N1CCC(N(C)C)CC1 : what is it?
Result: 6.30 to 7.30

Problem: Which measured pIC50 value corresponds to CCc1cc(Nc2nc(Nc3ccc4nccnc4c3N(C)S(C)(=O)=O)c3cc[nH]c3n2)c(OC)cc1N1CCC(N(C)C)C1 (centres unmarked) ?
Result: 6.30 to 7.30

====

TARGET OR TEST SYSTEM: various mutants of kinase EGFR (BaF3 cell lines stably transfected with kinase) (Homo sapiens, UniProt P00533, L858R/T790M)
Construct: expressed in transfected cells; host or cells: BaF3
Sequence (P00533 25-1210 T790M/L858R): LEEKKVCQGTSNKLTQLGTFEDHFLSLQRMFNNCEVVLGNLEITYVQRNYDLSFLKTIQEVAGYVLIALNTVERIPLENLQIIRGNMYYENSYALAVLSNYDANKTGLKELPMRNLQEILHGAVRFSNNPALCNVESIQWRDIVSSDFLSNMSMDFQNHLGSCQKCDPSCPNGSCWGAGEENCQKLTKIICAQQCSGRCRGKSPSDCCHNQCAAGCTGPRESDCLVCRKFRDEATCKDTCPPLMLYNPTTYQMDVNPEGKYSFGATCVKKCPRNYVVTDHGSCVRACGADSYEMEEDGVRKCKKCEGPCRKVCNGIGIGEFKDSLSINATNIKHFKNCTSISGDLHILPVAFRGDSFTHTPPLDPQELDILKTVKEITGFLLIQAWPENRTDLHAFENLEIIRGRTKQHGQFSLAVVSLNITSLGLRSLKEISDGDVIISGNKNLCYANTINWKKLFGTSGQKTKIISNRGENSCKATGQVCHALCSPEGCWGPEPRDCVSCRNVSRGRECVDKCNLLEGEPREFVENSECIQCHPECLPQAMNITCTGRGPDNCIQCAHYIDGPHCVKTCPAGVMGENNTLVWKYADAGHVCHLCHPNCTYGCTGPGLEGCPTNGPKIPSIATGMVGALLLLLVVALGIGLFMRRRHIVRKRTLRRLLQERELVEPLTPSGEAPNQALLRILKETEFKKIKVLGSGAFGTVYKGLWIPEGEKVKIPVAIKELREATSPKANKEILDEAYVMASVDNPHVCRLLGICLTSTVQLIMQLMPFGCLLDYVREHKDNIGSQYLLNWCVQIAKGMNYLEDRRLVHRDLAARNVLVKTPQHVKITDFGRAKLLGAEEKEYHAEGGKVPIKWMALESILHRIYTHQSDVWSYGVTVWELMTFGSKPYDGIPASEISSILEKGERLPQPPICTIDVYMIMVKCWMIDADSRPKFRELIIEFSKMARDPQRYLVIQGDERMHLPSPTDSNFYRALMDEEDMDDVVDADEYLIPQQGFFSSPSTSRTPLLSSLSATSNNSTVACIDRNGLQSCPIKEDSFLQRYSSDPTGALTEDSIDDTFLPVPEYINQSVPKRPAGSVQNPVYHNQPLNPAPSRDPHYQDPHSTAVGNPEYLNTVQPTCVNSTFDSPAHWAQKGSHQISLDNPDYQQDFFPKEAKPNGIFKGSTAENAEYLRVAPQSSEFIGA
RUN DESCRIPTION: Growth inhibitory activity of compounds on BaF3 cell lines stably transfected with kinase (MTS, 48 h)
Assay type: cell-based
DETAILS: BaF3 cell line stably transfected with EGFR L858R/T790M, read-out: L858R/ T790M growth inhibitory activity IC50
pIC50: −log10 of the molar value.
PROPERTY: pIC50

# STRUCTURE NOTATION, MEASUREMENT
records = [
    ("CCc1cc(Nc2nc(Nc3ccc4nccnc4c3N(C)S(C)(=O)=O)c3cc[nH]c3n2)c(OC)nc1N1CCC(N2CCN(C)CC2)CC1", "≥ 7.30"),
    ("CCc1cc(Nc2ncc(Br)c(Nc3ccc4nccnc4c3N(C)S(C)(=O)=O)n2)c(OC)cc1NCCO", "6.30 to 7.30"),
    ("CCc1cc(Nc2nc(Nc3ccc4nccnc4c3N(C)S(C)(=O)=O)c3occc3n2)c(OC)nc1N1CCC(N2CCN(C)CC2)CC1", "6.30 to 7.30"),
    ("COc1ccc(N2CCC(O)CC2)cc1Nc1ncc(Br)c(Nc2ccc3nccnc3c2N(C2CC2)S(C)(=O)=O)n1", "≥ 7.30"),
    ("CCc1cc(Nc2nc(Nc3ccc4nccnc4c3N(C)S(C)(=O)=O)c3occc3n2)c(OC)cc1N1CCC(N2CCN(C)CC2)CC1", "≥ 7.30"),
]

Problem: Bench note: what pIC50 did COc1nc(N2CCC(N3CCN(C)CC3)CC2)ccc1Nc1nc(Nc2ccc3nccnc3c2N(C)S(C)(=O)=O)c2sccc2n1 show?
Result: 5.60 to 6.30

Problem: Quick one: pIC50 for COc1cc(N2CCC(N3CCN(C)CC3)CC2)ccc1Nc1ncc(Cl)c(Nc2ccc3nccnc3c2N(C2CC2)S(C)(=O)=O)n1 ?
Result: 6.30 to 7.30

Cited source for all entries: patent US20230310428A1
